Measured values drawn from the supplement of paper PMC10065799 for this set.

- System: Grb2 SH2 (UniProt P62993)
- Experiment Notes: SH2 binding enrichment of the phosphorylated peptide, bacterial display (enrichment ratio); higher = better substrate or ligand; peptides without Tyr show the background
Measured Quantity: SH2 binding enrichment

Recorded results for 4 sequences are shown here.
Residue Sequence	System	SH2 binding enrichment
GQSKGYRPKLY [SIPA1L3_Y1376]	Grb2 SH2 (UniProt P62993)	0.662
FIRKDYEACKA [BBS4_Y48_YF]	Grb2 SH2 (UniProt P62993)	1.07
AHAGEHGAEAL [HBA1_Y25_Y25H]	Grb2 SH2 (UniProt P62993)	0.782
VVGMLYVGGLP [LAMA2_Y2886]	Grb2 SH2 (UniProt P62993)	0.78

I. LLDGEYFTLQI [TP53_Y327_P322L]
II. NELTYYCYKKD [CD59_Y87_C89Y]
**Q:** When I and II are compared, which has the higher number for SH2 binding enrichment? Answer with the label corresponding to your selection.
**A:** I

---

- System: AncSZ
- Experiment Notes: phosphorylation enrichment, bacterial display (enrichment ratio); higher = better substrate or ligand; peptides without Tyr show the background
Measured Quantity: phosphorylation enrichment
// keep it numeric: no unit symbol after the value

**Q:** Read off the recorded phosphorylation enrichment for RAIGHYSATSK [FAM120A_Y328_Y327H]
**A:** 0.964

**Q:** Consider the sequence DPHECYAKVFD [ALB_Y394] . State its measured phosphorylation enrichment.
**A:** 1.11

**Q:** State, in one line, measured phosphorylation enrichment of LFCVHYFHRTF [SRD5A2_Y91]
**A:** 2.32

**Q:** Return phosphorylation enrichment (reported value) for this sequence: NDEDIYKGLPD [VAV3_Y141]
**A:** 1.23

**Q:** Please indicate phosphorylation enrichment recorded for IRDENYGEGSS [ACO2_Y665_G661R]
**A:** 0.917

**Q:** Complete the entry with phosphorylation enrichment for TPTYPYLLPKS [PLD2_Y580]
**A:** 0.527

---

Catalogue of sequences with associated phosphorylation enrichment
- System: EPHB1 (UniProt P54762)
- Sequence (P54762 whole entry, looked up): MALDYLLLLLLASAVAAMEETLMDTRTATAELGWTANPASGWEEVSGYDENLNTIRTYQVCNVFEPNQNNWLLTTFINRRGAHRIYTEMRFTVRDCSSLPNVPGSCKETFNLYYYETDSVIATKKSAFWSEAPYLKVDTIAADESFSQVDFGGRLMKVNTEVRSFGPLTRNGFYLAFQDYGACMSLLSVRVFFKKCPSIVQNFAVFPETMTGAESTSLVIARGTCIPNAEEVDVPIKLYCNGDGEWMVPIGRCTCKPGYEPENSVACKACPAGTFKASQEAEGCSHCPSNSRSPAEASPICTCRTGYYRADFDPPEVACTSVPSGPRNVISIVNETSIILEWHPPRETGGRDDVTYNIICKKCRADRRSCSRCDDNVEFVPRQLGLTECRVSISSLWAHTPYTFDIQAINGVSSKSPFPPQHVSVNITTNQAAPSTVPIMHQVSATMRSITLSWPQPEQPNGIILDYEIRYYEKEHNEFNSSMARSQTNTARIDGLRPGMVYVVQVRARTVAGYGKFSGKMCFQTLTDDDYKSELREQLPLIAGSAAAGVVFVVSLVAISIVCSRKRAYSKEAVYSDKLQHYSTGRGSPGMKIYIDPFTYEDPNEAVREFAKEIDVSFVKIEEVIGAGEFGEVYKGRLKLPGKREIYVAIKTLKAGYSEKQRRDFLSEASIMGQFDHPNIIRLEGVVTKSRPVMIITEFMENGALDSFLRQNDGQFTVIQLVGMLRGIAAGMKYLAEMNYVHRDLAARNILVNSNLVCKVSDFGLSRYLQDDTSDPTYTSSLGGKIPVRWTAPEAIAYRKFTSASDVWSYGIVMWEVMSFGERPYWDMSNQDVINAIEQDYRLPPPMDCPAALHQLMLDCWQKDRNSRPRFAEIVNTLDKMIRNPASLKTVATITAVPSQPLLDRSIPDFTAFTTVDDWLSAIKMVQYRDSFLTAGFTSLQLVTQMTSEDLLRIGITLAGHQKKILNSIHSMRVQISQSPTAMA
- Experiment Notes: phosphorylation enrichment, bacterial display (enrichment ratio); higher = better substrate or ligand; peptides without Tyr show the background
Answer with a bare number; do not write a unit.

Solved cases (2 shown):
Residue Sequence	System	phosphorylation enrichment
DLQDEYDFKRK [STAT1_Y170_C174R]	EPHB1 (UniProt P54762)	0.495
ACRSLYGGFVE [MVD_Y164]	EPHB1 (UniProt P54762)	0.568

**Q:** Quote phosphorylation enrichment reported for KKRSSYGNSSD [SELENOK_Y52_R50S] please.
**A:** 0.4

**Q:** Consider the sequence RIVEIYSRRLQ [GCH1_Y175] and give its recorded phosphorylation enrichment.
**A:** 0.645

---

Form field: phosphorylation enrichment (one value per entry).
- Test system: c-Abl (mouse)
- Experiment Notes: phosphorylation enrichment, bacterial display (enrichment ratio); higher = better substrate or ligand; peptides without Tyr show the background
Lab note: record the figure alone, no unit after it.

Residue Sequence	Number
NKEPRYQEEPP [TJP2_Y479_D482E]	0.907
KIIRWYVSSEG [ANK2_Y3907_R3906W]	0.747
NREGVYRVFAP [TGFBI_Y537_T538R]	0.636
ALRHFYKLNII [ETV6_Y402_YF]	0.84
SVAVPYEPPEV [TP53_Y220_V217A]	0.823
FKDYFYCWNTS [AICDA_Y146_F151S]	0.973
EVKAQNEDIAQ [KRT1_Y358_Y358N]	0.51
RKKEEYKMALY [F8_Y1990]	0.632

**Q:** Query phosphorylation enrichment for NCFKFYMSDDI [ATRX_Y204_YF]
**A:** 0.95

**Q:** Quickly give me recorded phosphorylation enrichment for SKAFAYVHFDS [PABPC5_Y149_G146A_YF]
**A:** 0.669
